Assay: Experimental lipophilicity (P, log P)
Assay type: physicochemical
Settings: read-out: Lipophilicity Log P
Where a SMILES comes first, the peptide text is derived from it. Bridges are numbered along the chain shown (N, C = ends). [ ]: non-standard residue; d: D form. d2Nal = N[C@H](Cc1ccc2ccccc2c1)C(=O)O; Nle = CCCC[C@H](N)C(=O)O; βAla = NCCC(=O)O
assay readout: logP
Write the number on its own, no unit after it.

query: May I ask what logP has been recorded for CCCC[C@H](NC(=O)CCNC(=O)[C@H](Cc1ccccc1)NC(=O)CNC(=O)[C@@H](C)NC(=O)[C@@H](N)Cc1ccc(O)cc1)C(=O)N[C@H]1CC(=O)NCCCC[C@@H](C(N)=O)NC(=O)[C@H](Cc2c[nH]c3ccccc23)NC(=O)[C@H](CCCNC(=N)N)NC(=O)[C@@H](Cc2ccc3ccccc3c2)NC(=O)[C@H](Cc2c[nH]cn2)NC1=O [Compound 2, ENK-β-Ala-SHU] (H-Y[dA]GF[βAla][Nle]DH[d2Nal]RWK-NH2; lactam 7-12) ?
result: -2.33

###

So I've got a bunch of compounds here, and I need their Selectivity MOR/DOR values.
Molecular target: mu opioid receptor (MOR) (Rattus norvegicus)
Construct: The determinations for opioid receptors were performed in rat brain homogenates; from tissue; host or cells: rat brain homogenate (membrane fraction)
Sequence (P33535 whole entry): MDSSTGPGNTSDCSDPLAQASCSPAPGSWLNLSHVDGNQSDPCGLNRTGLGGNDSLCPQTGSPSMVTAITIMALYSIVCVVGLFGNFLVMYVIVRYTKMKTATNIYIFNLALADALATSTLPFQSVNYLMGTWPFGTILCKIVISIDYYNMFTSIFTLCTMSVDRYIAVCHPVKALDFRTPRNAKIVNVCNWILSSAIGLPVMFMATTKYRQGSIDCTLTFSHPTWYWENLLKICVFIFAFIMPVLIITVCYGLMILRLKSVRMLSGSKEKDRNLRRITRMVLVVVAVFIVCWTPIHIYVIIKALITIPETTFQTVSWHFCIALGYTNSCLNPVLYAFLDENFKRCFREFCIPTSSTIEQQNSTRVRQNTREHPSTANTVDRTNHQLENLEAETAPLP
Test: Competitive radioligand binding, [3H]DAMGO, rat brain homogenate
Conditions: calculated as ratio of IC50 values
Where a SMILES comes first, the peptide text is derived from it. Bridges are numbered along the chain shown (N, C = ends). [ ]: non-standard residue; d: D form. d2Nal = N[C@H](Cc1ccc2ccccc2c1)C(=O)O; Nle = CCCC[C@H](N)C(=O)O; Ahx = NCCCCCC(=O)O; βAla = NCCC(=O)O
Write the number on its own, no unit after it.

query: May I ask what Selectivity MOR/DOR has been recorded for CCCC[C@H](NC(=O)CCCCCNC(=O)CCCCCNC(=O)[C@H](Cc1ccccc1)NC(=O)CNC(=O)[C@@H](C)NC(=O)[C@@H](N)Cc1ccc(O)cc1)C(=O)N[C@H]1CC(=O)NCCCC[C@@H](C(N)=O)NC(=O)[C@H](Cc2c[nH]c3ccccc23)NC(=O)[C@H](CCCNC(=N)N)NC(=O)[C@@H](Cc2ccc3ccccc3c2)NC(=O)[C@H](Cc2c[nH]cn2)NC1=O [Compound 4, ENK-(Ahx)2-SHU] (H-Y[dA]GF[Ahx][Ahx][Nle]DH[d2Nal]RWK-NH2; lactam 8-13) ?
result: 4.1

query: Next record, please: CCCC[C@H](NC(=O)CCCCCNC(=O)[C@H](Cc1ccccc1)NC(=O)CNC(=O)[C@@H](C)NC(=O)[C@@H](N)Cc1ccc(O)cc1)C(=O)N[C@H]1CC(=O)NCCCC[C@@H](C(N)=O)NC(=O)[C@H](Cc2c[nH]c3ccccc23)NC(=O)[C@H](CCCNC(=N)N)NC(=O)[C@@H](Cc2ccc3ccccc3c2)NC(=O)[C@H](Cc2c[nH]cn2)NC1=O [Compound 3, ENK-Ahx-SHU] (H-Y[dA]GF[Ahx][Nle]DH[d2Nal]RWK-NH2; lactam 7-12)
result: 0.7

query: Next record, please: CCCC[C@H](NC(=O)CCNC(=O)[C@H](Cc1ccccc1)NC(=O)CNC(=O)[C@@H](C)NC(=O)[C@@H](N)Cc1ccc(O)cc1)C(=O)N[C@H]1CC(=O)NCCCC[C@@H](C(N)=O)NC(=O)[C@H](Cc2c[nH]c3ccccc23)NC(=O)[C@H](CCCNC(=N)N)NC(=O)[C@@H](Cc2ccc3ccccc3c2)NC(=O)[C@H](Cc2c[nH]cn2)NC1=O [Compound 2, ENK-β-Ala-SHU] (H-Y[dA]GF[βAla][Nle]DH[d2Nal]RWK-NH2; lactam 7-12)
result: 0.2

query: Next record, please: CCCC[C@H](NC(=O)[C@@H](C)NC(=O)[C@H](Cc1ccccc1)NC(=O)CNC(=O)[C@@H](C)NC(=O)[C@@H](N)Cc1ccc(O)cc1)C(=O)N[C@H]1CC(=O)NCCCC[C@@H](C(N)=O)NC(=O)[C@H](Cc2c[nH]c3ccccc23)NC(=O)[C@H](CCCNC(=N)N)NC(=O)[C@@H](Cc2ccc3ccccc3c2)NC(=O)[C@H](Cc2c[nH]cn2)NC1=O [Compound 1, ENK-D-Ala-SHU] (H-Y[dA]GF[dA][Nle]DH[d2Nal]RWK-NH2; lactam 7-12)
result: 0.2

###

Test: Experimental lipophilicity (P, log P)
Format: physicochemical
Settings: read-out: Lipophilicity P
Where a SMILES comes first, the peptide text is derived from it. Bridges are numbered along the chain shown (N, C = ends). [ ]: non-standard residue; d: D form. d2Nal = N[C@H](Cc1ccc2ccccc2c1)C(=O)O; Nle = CCCC[C@H](N)C(=O)O; Ahx = NCCCCCC(=O)O; βAla = NCCC(=O)O
So I've got a bunch of molecules here, and I need their logP values.

query: May I ask what logP has been recorded for CCCC[C@H](NC(=O)CCCCCNC(=O)CCCCCNC(=O)[C@H](Cc1ccccc1)NC(=O)CNC(=O)[C@@H](C)NC(=O)[C@@H](N)Cc1ccc(O)cc1)C(=O)N[C@H]1CC(=O)NCCCC[C@@H](C(N)=O)NC(=O)[C@H](Cc2c[nH]c3ccccc23)NC(=O)[C@H](CCCNC(=N)N)NC(=O)[C@@H](Cc2ccc3ccccc3c2)NC(=O)[C@H](Cc2c[nH]cn2)NC1=O [Compound 4, ENK-(Ahx)2-SHU] (H-Y[dA]GF[Ahx][Ahx][Nle]DH[d2Nal]RWK-NH2; lactam 8-13) ?
result: -2.92

query: Next record, please: CCCC[C@H](NC(=O)CCNC(=O)[C@H](Cc1ccccc1)NC(=O)CNC(=O)[C@@H](C)NC(=O)[C@@H](N)Cc1ccc(O)cc1)C(=O)N[C@H]1CC(=O)NCCCC[C@@H](C(N)=O)NC(=O)[C@H](Cc2c[nH]c3ccccc23)NC(=O)[C@H](CCCNC(=N)N)NC(=O)[C@@H](Cc2ccc3ccccc3c2)NC(=O)[C@H](Cc2c[nH]cn2)NC1=O [Compound 2, ENK-β-Ala-SHU] (H-Y[dA]GF[βAla][Nle]DH[d2Nal]RWK-NH2; lactam 7-12)
result: -2.33

query: Next record, please: CCCC[C@H](NC(=O)[C@@H](C)NC(=O)[C@H](Cc1ccccc1)NC(=O)CNC(=O)[C@@H](C)NC(=O)[C@@H](N)Cc1ccc(O)cc1)C(=O)N[C@H]1CC(=O)NCCCC[C@@H](C(N)=O)NC(=O)[C@H](Cc2c[nH]c3ccccc23)NC(=O)[C@H](CCCNC(=N)N)NC(=O)[C@@H](Cc2ccc3ccccc3c2)NC(=O)[C@H](Cc2c[nH]cn2)NC1=O [Compound 1, ENK-D-Ala-SHU] (H-Y[dA]GF[dA][Nle]DH[d2Nal]RWK-NH2; lactam 7-12)
result: -2.3

query: Next record, please: CCCC[C@H](NC(=O)CCCCCNC(=O)[C@H](Cc1ccccc1)NC(=O)CNC(=O)[C@@H](C)NC(=O)[C@@H](N)Cc1ccc(O)cc1)C(=O)N[C@H]1CC(=O)NCCCC[C@@H](C(N)=O)NC(=O)[C@H](Cc2c[nH]c3ccccc23)NC(=O)[C@H](CCCNC(=N)N)NC(=O)[C@@H](Cc2ccc3ccccc3c2)NC(=O)[C@H](Cc2c[nH]cn2)NC1=O [Compound 3, ENK-Ahx-SHU] (H-Y[dA]GF[Ahx][Nle]DH[d2Nal]RWK-NH2; lactam 7-12)
result: -2.43

###

Assay: Experimental lipophilicity (P, log P)
Assay type: physicochemical
Settings: read-out: Lipophilicity Log P
Where a SMILES comes first, the peptide text is derived from it. Bridges are numbered along the chain shown (N, C = ends). [ ]: non-standard residue; d: D form. d2Nal = N[C@H](Cc1ccc2ccccc2c1)C(=O)O; Nle = CCCC[C@H](N)C(=O)O; Ahx = NCCCCCC(=O)O
So I've got a bunch of molecules here, and I need their logP values.
Write the number on its own, no unit after it.

query: May I ask what logP has been recorded for CCCC[C@H](NC(=O)CCCCCNC(=O)CCCCCNC(=O)[C@H](Cc1ccccc1)NC(=O)CNC(=O)[C@@H](C)NC(=O)[C@@H](N)Cc1ccc(O)cc1)C(=O)N[C@H]1CC(=O)NCCCC[C@@H](C(N)=O)NC(=O)[C@H](Cc2c[nH]c3ccccc23)NC(=O)[C@H](CCCNC(=N)N)NC(=O)[C@@H](Cc2ccc3ccccc3c2)NC(=O)[C@H](Cc2c[nH]cn2)NC1=O [Compound 4, ENK-(Ahx)2-SHU] (H-Y[dA]GF[Ahx][Ahx][Nle]DH[d2Nal]RWK-NH2; lactam 8-13) ?
result: -2.92

query: Next record, please: CCCC[C@H](NC(=O)CCCCCNC(=O)[C@H](Cc1ccccc1)NC(=O)CNC(=O)[C@@H](C)NC(=O)[C@@H](N)Cc1ccc(O)cc1)C(=O)N[C@H]1CC(=O)NCCCC[C@@H](C(N)=O)NC(=O)[C@H](Cc2c[nH]c3ccccc23)NC(=O)[C@H](CCCNC(=N)N)NC(=O)[C@@H](Cc2ccc3ccccc3c2)NC(=O)[C@H](Cc2c[nH]cn2)NC1=O [Compound 3, ENK-Ahx-SHU] (H-Y[dA]GF[Ahx][Nle]DH[d2Nal]RWK-NH2; lactam 7-12)
result: -2.43

query: Next record, please: CCCC[C@H](NC(=O)[C@@H](C)NC(=O)[C@H](Cc1ccccc1)NC(=O)CNC(=O)[C@@H](C)NC(=O)[C@@H](N)Cc1ccc(O)cc1)C(=O)N[C@H]1CC(=O)NCCCC[C@@H](C(N)=O)NC(=O)[C@H](Cc2c[nH]c3ccccc23)NC(=O)[C@H](CCCNC(=N)N)NC(=O)[C@@H](Cc2ccc3ccccc3c2)NC(=O)[C@H](Cc2c[nH]cn2)NC1=O [Compound 1, ENK-D-Ala-SHU] (H-Y[dA]GF[dA][Nle]DH[d2Nal]RWK-NH2; lactam 7-12)
result: -2.3
